Data origin, for the record: patent US20230212244A1

Target: T1, HLA-A*02:01 (human)
T1 construct: MHC class I monomer made peptide-receptive by UV cleavage of a UV-sensitive ligand; also called peptide-receptive MHC molecules
Experiment: UV-ligand exchange ELISA (anti-β2m), peptide exchange yield grade
# peptide exchange yield per record follows

| binder | peptide exchange yield |
| --- | --- |
| SLIEYEFRV [peptide SLIEYEFRV (SEQ ID NO: 89)] | 50 to 75% |
| ALDPELLLL [peptide ALDPELLLL (SEQ ID NO: 78)] | 20 to 50% |
| RLAELTVDEFLA [peptide RLAELTVDEFLA (SEQ ID NO: 127)] | 50 to 75% |
| ALSDETWGL [peptide ALSDETWGL (SEQ ID NO: 146)] | 20 to 50% |
| KQFEGTVEI [peptide KQFEGTVEI (SEQ ID NO: 138)] | 50 to 75% |
| KLMDYIDEL [peptide KLMDYIDEL (SEQ ID NO: 162)] | 50 to 75% |
| FLVDGPRVQL [peptide FLVDGPRVQL (SEQ ID NO: 188)] | 50 to 75% |
| YLAHFIEGL [peptide YLAHFIEGL (SEQ ID NO: 169)] | 50 to 75% |
